// data source = PubChem BioAssay (NCI)

System: OVCAR-8 ovarian
Assay: NCI-60 one-dose screen, 48 h
Details: 10 µM unless noted
Method: Growth inhibition of the OVCAR-8 human tumor cell line is measured as a screen for anti-cancer activity. Cells are grown in 96 well plates and exposed to the test compound for 48 hours. Compounds are tested at a single concentration, which is 10^-5 M for most compounds. The reported endpoint is percent growth (GI% or GIPRCNT), where numbers from 0 - 100% represent growth inhibition, and numbers from -100% - 0 represent cell death. For example, a value of 40 represents 60% growth inhibition. […]
This is part of a sample that, as a whole, favours compounds with a hit. Of some 83,000 tested, about 20% had one in any assay. Calls of active or inactive are those of the source. How the source made its calls: active means growth percent below 10; inactive means the rest.
Classes used: 1 = active, 0 = inactive

Molecule | Category
N#Cc1c(NCc2ccccc2I)sc2c1CCCCC2 | 0
COc1ccc(OC)c(CCn2cncc2-c2c[nH]c3ccccc23)c1 | 0
CCCCCCOc1ccc(/C=N/Nc2cc(C)nc3ccc(Cl)cc23)cc1 | 1
Cn1ccc2c1CC1CN(Cc3ccco3)C(=O)C1C2C(=O)O (stereo not drawn) | 0
CCOc1ccc(/C=N/Nc2cc(C)nc3ccc(Br)cc23)cc1 | 0
COc1ccc(C(=O)C2C(C#N)C(C#N)C3c4ccccc4C=CN23)cc1 (stereo not drawn) | 1
COc1cccc(-c2nc3occn3c2-c2ccnc(NCCNS(=O)(=O)c3ccc(C(F)(F)F)cc3)n2)c1 | 0
Nc1ccccc1NC(=O)c1ccc(-n2nc(-c3ccccc3)c3ccccc32)cc1 | 0
COc1cc(C2C3=C(COC3=O)N(CCO)c3cc4c(cc32)CCC4)cc(OC)c1OC (stereo not drawn) | 0
N=C(N)c1ccc(OCCCCCCCCCCOc2ccc(C(=N)N)cc2)cc1 | 1
O=C(CCN1CCCC1)Nc1ccc2c(NCCCCc3ccccc3)c3ccccc3nc2c1 | 1
COc1cc(/C=C\C(=O)O)ccc1OCc1ccccc1 | 0
CCOC(=O)c1cc(C(=O)c2cc(OC)cc(OC)c2)n2ccc3ccccc3c12 | 0
